All values here come from patent US20180044434A1.

- Measured On: T1, full-length recombinant human PAD4 (human, UniProt Q9UM07 1-663)
- T1 construct: Full-length recombinant; also called peptidylarginine deiminase 4
- Assay Info: ELISA, coated human PAD4; antibody 0.0009766 ug/mL
Kindly return met if reported OD 490/630 nm is no lower than 0.5; return not met if it is lower.

Binder	Qualitative Label
H7 (antibody, V domains shown, Chicken variable regions in a mouse chimeric antibody (IgG1); also called anti-PAD4 antibody H7) VH: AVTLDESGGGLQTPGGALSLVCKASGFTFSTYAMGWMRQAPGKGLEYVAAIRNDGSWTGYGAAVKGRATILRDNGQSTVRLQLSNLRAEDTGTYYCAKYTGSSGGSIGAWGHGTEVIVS VL: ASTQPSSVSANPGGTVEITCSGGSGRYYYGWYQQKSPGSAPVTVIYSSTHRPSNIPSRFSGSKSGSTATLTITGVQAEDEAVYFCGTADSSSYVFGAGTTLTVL	met
G8 (antibody, V domains shown, Chicken variable regions in a mouse chimeric antibody (IgG1); also called anti-PAD4 antibody G8) VH: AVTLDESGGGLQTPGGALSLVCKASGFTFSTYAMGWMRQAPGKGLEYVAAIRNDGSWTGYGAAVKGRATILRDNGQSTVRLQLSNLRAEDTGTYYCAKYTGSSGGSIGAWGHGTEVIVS VL: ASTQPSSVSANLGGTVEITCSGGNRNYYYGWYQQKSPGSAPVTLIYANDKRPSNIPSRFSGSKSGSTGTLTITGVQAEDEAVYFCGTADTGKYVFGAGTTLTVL	met
G9 (antibody, V domains shown, Chicken variable regions in a mouse chimeric antibody (IgG1); also called anti-PAD4 antibody G9) VH: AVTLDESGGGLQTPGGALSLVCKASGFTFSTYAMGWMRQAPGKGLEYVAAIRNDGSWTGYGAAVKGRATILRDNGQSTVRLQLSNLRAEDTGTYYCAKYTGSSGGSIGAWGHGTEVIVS VL: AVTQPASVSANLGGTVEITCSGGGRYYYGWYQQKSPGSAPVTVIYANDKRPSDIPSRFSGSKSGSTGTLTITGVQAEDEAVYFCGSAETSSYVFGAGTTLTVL	met
G6 (antibody, V domains shown, Chicken variable regions in a mouse chimeric antibody (IgG1); also called anti-PAD4 antibody G6) VH: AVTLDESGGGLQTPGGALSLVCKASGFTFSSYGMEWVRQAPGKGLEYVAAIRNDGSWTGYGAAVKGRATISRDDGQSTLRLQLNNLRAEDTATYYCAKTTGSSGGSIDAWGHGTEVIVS VL: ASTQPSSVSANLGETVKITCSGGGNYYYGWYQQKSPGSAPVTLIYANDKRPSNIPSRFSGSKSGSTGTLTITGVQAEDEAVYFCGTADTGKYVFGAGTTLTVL	not met
